- measured.on: Serine/threonine-protein kinase D1 (Homo sapiens, UniProt Q15139)
- Sequence (Q15139 whole entry): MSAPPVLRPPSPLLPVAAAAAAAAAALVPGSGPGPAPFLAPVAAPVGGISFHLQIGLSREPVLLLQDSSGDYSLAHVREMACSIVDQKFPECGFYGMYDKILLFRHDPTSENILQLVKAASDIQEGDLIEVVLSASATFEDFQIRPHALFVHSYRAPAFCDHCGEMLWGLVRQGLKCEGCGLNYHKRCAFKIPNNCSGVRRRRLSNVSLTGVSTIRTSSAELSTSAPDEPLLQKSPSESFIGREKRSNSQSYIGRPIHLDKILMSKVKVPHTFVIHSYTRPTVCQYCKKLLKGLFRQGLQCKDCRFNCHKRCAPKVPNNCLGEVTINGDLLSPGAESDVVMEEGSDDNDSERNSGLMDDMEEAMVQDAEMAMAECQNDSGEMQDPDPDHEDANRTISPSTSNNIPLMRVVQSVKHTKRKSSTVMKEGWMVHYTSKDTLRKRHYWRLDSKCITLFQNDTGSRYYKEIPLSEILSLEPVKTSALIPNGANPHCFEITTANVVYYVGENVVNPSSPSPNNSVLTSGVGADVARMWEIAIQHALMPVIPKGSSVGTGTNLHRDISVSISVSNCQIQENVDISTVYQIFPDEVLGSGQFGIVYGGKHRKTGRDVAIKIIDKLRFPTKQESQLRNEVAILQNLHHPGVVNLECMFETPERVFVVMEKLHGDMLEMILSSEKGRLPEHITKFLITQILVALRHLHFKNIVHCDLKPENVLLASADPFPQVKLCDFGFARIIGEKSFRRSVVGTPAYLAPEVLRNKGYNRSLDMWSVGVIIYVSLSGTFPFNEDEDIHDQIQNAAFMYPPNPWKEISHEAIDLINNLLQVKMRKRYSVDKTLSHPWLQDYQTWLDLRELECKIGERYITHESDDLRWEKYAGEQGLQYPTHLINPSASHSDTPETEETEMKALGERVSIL
- method.summary: Inhibition of PKD1 assessed as inhibition of HDAC5 neuclear export
pEC50: −log10 of the molar value.
recorded.metric: pEC50

Using Serine/threonine-protein kinase D1 (Homo sapiens, UniProt Q15139) as the test system, report measured pEC50 of c1cc(-c2cc(-c3cn[nH]c3)cc(N3CCNCC3)n2)cc(NC2CCCCC2)n1 .
7.77

// fetch pEC50 for O=C1NCc2c1cc(N1CCNCC1)nc2-c1ccnc(NC2CCCCC2)c1 ; system: Serine/threonine-protein kinase D1 (Homo sapiens, UniProt Q15139)
6.94

GET pEC50 where system = Serine/threonine-protein kinase D1 (Homo sapiens, UniProt Q15139) and item = NC(=O)c1cc(-c2ccnc(NC3CCCC3)c2)nc(N2CCNCC2)c1
6.69

Please report the measured pEC50 for c1cc(-c2cc(-c3cn[nH]c3)cc(N3CCNCC3)n2)cc(NC2CCOCC2)n1 tested on Serine/threonine-protein kinase D1 (Homo sapiens, UniProt Q15139).
6.63

Look up Serine/threonine-protein kinase D1 (Homo sapiens, UniProt Q15139) data: pEC50 of FC(F)(F)c1cc(-c2ccnc(NC3CCCCC3)c2)nc(N2CCNCC2)c1 , then report it.
6.47

Quote pEC50 with test system Serine/threonine-protein kinase D1 (Homo sapiens, UniProt Q15139) for C[C@@H]1CN(c2cc(C(N)=O)cc(-c3ccnc(NC4CCCCC4)c3)n2)CCN1
6.17

Fill: pEC50 (Serine/threonine-protein kinase D1 (Homo sapiens, UniProt Q15139)) for this compound NC(=O)c1cc(-c2ccnc(NC3CCCCC3)c2)nc(N2CCNCC2)c1
7.11

Quote pEC50 with test system Serine/threonine-protein kinase D1 (Homo sapiens, UniProt Q15139) for CC(C)Nc1cc(-c2cc(-c3cn[nH]c3)cc(N3CCNCC3)n2)ccn1
7.04

Name the value of pEC50 reported for Cn1ccc(Nc2cc(-c3cc(C#N)cc(N4CCNCC4)n3)ccn2)n1 when tested on Serine/threonine-protein kinase D1 (Homo sapiens, UniProt Q15139).
6.37

With Serine/threonine-protein kinase D1 (Homo sapiens, UniProt Q15139) as the test system, provide measured pEC50 for this compound: FC(F)c1cc(-c2ccnc(NC3CCCCC3)c2)nc(N2CCNCC2)c1
6.25

[1] Cn1ccc(Nc2cc(-c3cc(C(N)=O)cc(N4CCNCC4)n3)ccn2)n1
[2] NC(=O)c1cc(-c2ccnc(Nc3ccccc3)c2)nc(N2CCNCC2)c1
Consider entries 1 and 2 . Which has the numerically lower pEC50? To answer, give the label that identifies your chosen option.
1

---

- method.summary: Cmax in rats after 5 mg/kg oral dose
- Format: ADME, organism-based
- Set-up: dose 5 mg/kg, route oral
- assay.setup: Sprague-Dawley, rat, in vivo
recorded.metric: Cmax (nM)

Quote Cmax reported for FC(F)(F)c1cc(-c2ccnc(NC3CCCCC3)c2)nc(N2CCNCC2)c1 please.
251

[P] O=C1NCc2c1cc(-c1ccnc(NC3CCCCC3)c1)nc2N1CCNCC1
[Q] N#Cc1cc(-c2ccnc(Nc3ccccc3)c2)nc(N2CCNCC2)c1
I need your help: which of the pair P , Q has higher Cmax? Give the label under which the chosen entry appears.
Q
(Q: 231 nM, P: 31 nM)
